assay: qHTS for Inhibitors of the Functional Ribonucleoprotein Complex (vRNP) of Lassa (LASV) Arenavirus: LASV Confirmatory Screen - GLuc reporter signal; conditions: LASV minigenome vRNP, Gaussia luciferase reporter; series mostly up to 53.9 µM
Results filed as inconclusive are left out. Calls of active or inactive are those of the source. The call rests on the fitted dose curve.
Output constraint: value belongs to active, inactive

COMPOUND: Cc1ccc2c(c1)C1CN(C)CCC1N2 (centres undefined)
CLASS: inactive

COMPOUND: CC[C@@H](C(=O)O)[C@@H]1O[C@@H]([C@@H](C)[C@H](O)[C@H](C)C(=O)[C@H](CC)[C@H]2O[C@]3(C=C[C@@H](O)[C@]4(CC[C@@](C)([C@H]5CC[C@](O)(CC)[C@H](C)O5)O4)O3)[C@H](C)C[C@@H]2C)[C@@H](C)C[C@@H]1C
CLASS: active

COMPOUND: O=C(Nc1ccccc1)c1cc([N+](=O)[O-])ccc1Cl
CLASS: active

COMPOUND: CCC[C@H](N[C@@H](C)C(=O)N1[C@@H]2CCCC[C@H]2C[C@H]1C(=O)O)C(=O)OCC
CLASS: inactive

COMPOUND: CC(O)C(O)[C@H]1CNc2nc(N)[nH]c(=O)c2N1 (some centres undefined)
CLASS: inactive

Now turn to the next compound.
Exercise: Recorded test call requested for "N#CC(=C(\N)Sc1ccccc1N)/C(C#N)=C(/N)Sc1ccccc1N"
Solution: active

---

assay: qHTS for Inhibitors of the Functional Ribonucleoprotein Complex (vRNP) of Lassa (LASV) Arenavirus: LASV Confirmatory Screen - GLuc reporter signal; conditions: LASV minigenome vRNP, Gaussia luciferase reporter; series mostly up to 53.9 µM
Results filed as inconclusive are left out. Active and inactive are the calls of the source. The call rests on the fitted dose curve.
Output constraint: value belongs to true for active, false for inactive

The following molecules have reported results that may help.
MOLECULE: CC12C(=O)OC(=O)C1(C)C1CCC2O1 (stereo unspecified)
CLASS: true
--
MOLECULE: CNCCCC1c2ccccc2C=Cc2ccccc21
CLASS: true
--
MOLECULE: COC(=O)c1nc(Cl)c(Cl)nc1N
CLASS: true
--
MOLECULE: CC1=C(C)C(=O)C(CCCCC#CCCCC#CCO)=C(C)C1=O
CLASS: true
--
MOLECULE: COc1ccc2c(c1OC)CN1CCc3cc4c(cc3C1C2)OCO4 (stereo unspecified)
CLASS: true
--
MOLECULE: CCOC(=O)OCC/C(SC(=O)OCC)=C(\C)N(C=O)Cc1cnc(C)nc1N
CLASS: false

Exercise: Recorded test call requested for "CCCCC/C(C=O)=C\c1ccccc1"
Solution: false

Exercise: Recorded test call requested for "Cn1cc(-c2ccncc2)c(-c2ccc(OCc3ccc4ccccc4n3)cc2)n1"
Solution: true

Exercise: Recorded test call requested for "CC(=O)OCC(=O)[C@@]12N=C(C)O[C@H]1C[C@H]1[C@@H]3CCC4=CC(=O)C=C[C@]4(C)[C@@H]3[C@@H](O)C[C@@]12C"
Solution: false

Exercise: Recorded test call requested for "O=C1c2ccccc2-n2c1nc1ccccc1c2=O"
Solution: true

Exercise: Recorded test call requested for "CCc1cncnc1N1CCN(Cc2nc3ccc(C(F)(F)F)cc3[nH]2)CC1"
Solution: true

---

assay: qHTS for Inhibitors of the Functional Ribonucleoprotein Complex (vRNP) of Lassa (LASV) Arenavirus: LASV Confirmatory Screen - GLuc reporter signal; settings: LASV minigenome vRNP, Gaussia luciferase reporter; series mostly up to 53.9 µM
Records with an inconclusive call do not appear. Active and inactive are the calls of the source. Calls come from the whole dose curve.
Output constraint: value belongs to 1 (yes) = active, 0 (no) = inactive

The following compounds have reported results that may help.
SMILES TEXT: Oc1cc(Cl)ccc1Oc1ccc(Cl)cc1Cl
CLASS: 1 (yes)

SMILES TEXT: CCN(CC)C(=O)N[C@@H]1C=C2c3cccc4[nH]cc(c34)C[C@@H]2N(C)C1
CLASS: 0 (no)

SMILES TEXT: C=C1CC[C@@H]2[C@](C)(CO)[C@H](O)CC[C@@]2(C)[C@@H]1/C=C/C1=CCOC1=O
CLASS: 1 (yes)

SMILES TEXT: Cc1cc2c(C(C)C)c(O)c(O)c(C=O)c2c(O)c1-c1c(C)cc2c(C(C)C)c(O)c(O)c(C=O)c2c1O
CLASS: 1 (yes)

Exercise: Recorded test call requested for "CC(O)(P(=O)(O)O)P(=O)(O)O"
Solution: 0 (no)

---

experiment: qHTS for Inhibitors of the Functional Ribonucleoprotein Complex (vRNP) of Lassa (LASV) Arenavirus: LASV Confirmatory Screen - GLuc reporter signal; details: LASV minigenome vRNP, Gaussia luciferase reporter; series mostly up to 53.9 µM
Results filed as inconclusive are left out. Active and inactive are the calls of the source. Calls follow the shape of the full dose curve.
Output constraint: value belongs to active, inactive

MOLECULE: S=C(NCc1ccc2c(c1)OCO2)N1CCN(c2ncnc3c2oc2ccccc23)CC1
CLASS: active

Exercise: Recorded test call requested for Cc1ncc([N+](=O)[O-])n1CC(C)O (stereo not drawn)
Solution: inactive

Exercise: Recorded test call requested for "Cc1cccc(-c2[nH]c(C(C)(C)C)nc2-c2ccc3c(c2)OCO3)n1"
Solution: active

Exercise: Recorded test call requested for O=C(CCCN1CCN(c2ccc(F)cc2)CC1)NC1c2ccccc2CSc2ccccc21 (stereo not drawn)
Solution: inactive

Exercise: Recorded test call requested for "CCn1c(-c2nonc2N)nc2cnc(Oc3cccc(NC(=O)c4ccc(OCCN5CCOCC5)cc4)c3)cc21"
Solution: active

---

assay: qHTS for Inhibitors of the Functional Ribonucleoprotein Complex (vRNP) of Lassa (LASV) Arenavirus: LASV Confirmatory Screen - GLuc reporter signal; details: LASV minigenome vRNP, Gaussia luciferase reporter; series mostly up to 53.9 µM
Inconclusive results are not listed. Calls of active or inactive are those of the source. The call rests on the fitted dose curve.
PROPERTY MEASURED: Potency

Recorded Potency, per entry:
SMILES TEXT: FC(F)(F)c1ccc(C=Cc2nc(COc3ccc(CCCCn4ccnn4)cc3)co2)cc1
Potency: 0.0153 µM (active)

SMILES TEXT: CCCCCN=C(N)N/N=C/c1c[nH]c2ccc(OC)cc12
Potency: 8.63 µM (active)

Exercise: Fill blank: measured Potency of the compound "CC[C@@]1([C@@H]2O[C@@H]([C@H]3O[C@@](O)(CO)[C@H](C)C[C@H]3C)C[C@H]2C)CC[C@H]([C@]2(C)CC[C@]3(C[C@H](O)[C@@H](C)[C@@H]([C@@H](C)[C@@H](OC)[C@H](C)C(=O)O)O3)O2)O1" is ____.
Solution: 0.335 µM (active)
